Taken from paper PMC12051234.

Target: EcoNrdR (Escherichia coli) (UniProt P0A8D0)
Sequence: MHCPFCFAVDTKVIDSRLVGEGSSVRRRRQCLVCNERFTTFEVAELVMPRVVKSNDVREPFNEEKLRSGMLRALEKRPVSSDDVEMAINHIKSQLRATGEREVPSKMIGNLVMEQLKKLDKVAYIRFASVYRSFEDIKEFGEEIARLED
Experiment: MST
Settings: temperature not stated. Lmo: 25 mM Bis-Tris propane pH 6.5, 100 mM KCl, 5 mM MgCl2, 5% glycerol, 1 mM DTT, 0.05% Tween 20, one nucleotide 1 mM or two at 0.
parameterMeasured: Kd (nM)
I only need the number, in nM, no unit after it.

In: Requested field: Kd. Item: ACTATTTGCTATATATTGTGTGGTTGAATCTTTTTTCAACTACATCTAGTATCTCTG (double strand) [Eco nrdHIEF wild type]
Out: 130
